Test: in vivo
Conditions: Sprague-Dawley, rat, in vivo, po, 5 mg/kg
QUANTITY: AUC(0-t) (ng·h/mL)
Answer with a number only, understood to be in ng·h/mL.

Prompt: I'd like to know its AUC(0-t). The compound in question is C=C1[C@@H](O)[C@]2(O)OC[C@]34[C@H]2[C@@]2(C)[C@H](O)C(=O)C=C(C)[C@@H]2C[C@H]3OC(=O)C[C@@H]14
Response: 1120

* * *

Biological target: AR-FL (Homo sapiens, UniProt P10275)
Sequence (P10275 whole entry): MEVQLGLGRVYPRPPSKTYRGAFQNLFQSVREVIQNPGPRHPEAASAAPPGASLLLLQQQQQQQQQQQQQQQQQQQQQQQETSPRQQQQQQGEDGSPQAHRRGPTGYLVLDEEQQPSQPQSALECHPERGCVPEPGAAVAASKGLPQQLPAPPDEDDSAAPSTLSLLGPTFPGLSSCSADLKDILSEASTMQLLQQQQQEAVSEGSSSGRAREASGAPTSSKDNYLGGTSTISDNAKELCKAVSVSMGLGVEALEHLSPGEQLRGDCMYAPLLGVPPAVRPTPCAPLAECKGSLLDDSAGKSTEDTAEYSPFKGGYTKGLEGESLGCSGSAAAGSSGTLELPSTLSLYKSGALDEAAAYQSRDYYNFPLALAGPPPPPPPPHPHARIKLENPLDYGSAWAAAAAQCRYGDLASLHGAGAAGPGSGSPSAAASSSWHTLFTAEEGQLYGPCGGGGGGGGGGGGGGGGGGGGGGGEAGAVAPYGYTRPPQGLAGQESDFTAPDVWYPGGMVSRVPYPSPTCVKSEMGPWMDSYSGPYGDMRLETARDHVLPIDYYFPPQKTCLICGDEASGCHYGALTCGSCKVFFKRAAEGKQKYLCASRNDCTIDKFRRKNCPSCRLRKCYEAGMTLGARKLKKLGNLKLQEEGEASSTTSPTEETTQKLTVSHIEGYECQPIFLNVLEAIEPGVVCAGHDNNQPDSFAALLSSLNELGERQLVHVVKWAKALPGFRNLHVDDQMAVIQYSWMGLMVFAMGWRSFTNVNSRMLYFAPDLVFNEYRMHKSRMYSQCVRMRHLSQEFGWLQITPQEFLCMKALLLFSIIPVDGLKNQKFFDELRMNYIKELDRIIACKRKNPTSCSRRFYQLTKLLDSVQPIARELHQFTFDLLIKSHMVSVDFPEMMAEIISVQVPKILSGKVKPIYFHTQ
Assay: MMTV-luc dual luciferase reporter assay, DHT-induced AR activity in 22RV1 cells
Format: cell-based
Conditions: 22RV1, DHT +, compound 10 µM, 12 h, mean ± s.d., n=3
Here, each record is paired with measured MMTV-luc Activity (%), DHT-induced data.

[[record]]
compound = "O=C(/C=C/c1ccc(O)c2c1[C@H](C(=O)O[C@H](Cc1ccc(O)c(O)c1)C(=O)O)[C@@H](c1ccc(O)c(O)c1)O2)O[C@H](Cc1ccc(O)c(O)c1)C(=O)O [lithospermic acid B]"
quantity = "MMTV-luc Activity (%), DHT-induced"
test_value = "115.9±27.9%"

[[record]]
compound = "O=C1CCC[C@@H]2[C@H]3CCC[N@+]4([O-])CCC[C@@H](CN12)[C@@H]34 [Ammothamnine]"
quantity = "MMTV-luc Activity (%), DHT-induced"
test_value = "119.1±20.9%"

[[record]]
compound = "CC1(C)CC[C@]2(C(=O)O)CC[C@]3(C)C(=CC[C@@H]4[C@@]5(C)CC[C@H](O)C(C)(C)[C@@H]5CC[C@]43C)[C@@H]2C1 [Oleanic acid]"
quantity = "MMTV-luc Activity (%), DHT-induced"
test_value = "122.4±7.5%"

[[record]]
compound = "Cc1cc(O)c(C(=O)CCC(C)C)c(=O)o1 [Pogostone]"
quantity = "MMTV-luc Activity (%), DHT-induced"
test_value = "92.3±13.3%"

[[record]]
compound = "CC1(C)[C@@H](O)CC[C@]2(C)[C@H]3C(=O)C=C4[C@@H]5C[C@@](C)(C(=O)O)CC[C@]5(C)CC[C@@]4(C)[C@]3(C)CC[C@@H]12 [glycyrrhetic acid]"
quantity = "MMTV-luc Activity (%), DHT-induced"
test_value = "101.3±11.9%"

[[record]]
compound = "O=C([O-])C(O)Cc1ccc(O)c(O)c1.[Na+] (centres unmarked) [Sodium Danshensu]"
quantity = "MMTV-luc Activity (%), DHT-induced"
test_value = "93.0±14.7%"


Prompt: Param item = C=C1C[C@@]2(O)O[C@@]3(C[C@H]2C(C)C)[C@@H](C)CC[C@@H]13 [Curcumol] ; retrieve measured MMTV-luc Activity (%), DHT-induced.
Response: 90.0±9.2%

Prompt: // query MMTV-luc Activity (%), DHT-induced value for entry C=C[C@H]1[C@H](O[C@@H]2O[C@H](CO)[C@@H](O)[C@H](O)[C@H]2O)OC=C2C(=O)OCC[C@]21O [Swertiamain]
Response: 80.9±8.5%

Prompt: # input compound: COc1ccc([C@@H]2CC(=O)c3c(O)cc(O[C@@H]4O[C@H](CO[C@@H]5O[C@@H](C)[C@H](O)[C@@H](O)[C@H]5O)[C@@H](O)[C@H](O)[C@H]4O)cc3O2)cc1O [Hesperidin] ; wanted: its MMTV-luc Activity (%), DHT-induced
Response: 85.5±23.9%

Prompt: Param item = CN1CCc2cc3c(cc2[C@H]1[C@@H]1OC(=O)c2c1ccc1c2OCO1)OCO3 [d-Bicuculline] ; retrieve measured MMTV-luc Activity (%), DHT-induced.
Response: 75.0±11.5%

Prompt: Any idea what MMTV-luc Activity (%), DHT-induced was measured for O=Cc1ccc(O)c(O)c1 [Protocatechuic aldehyde] ?
Response: 83.1±0.1%

* * *

The entries below are paired with their reported MMTV-luc Activity (%), AR1-651-induced.
Target: AR1-651 (Homo sapiens)
Construct: FLAG; expressed in transfected cells; host or cells: 22RV1
Sequence (P10275 1-651): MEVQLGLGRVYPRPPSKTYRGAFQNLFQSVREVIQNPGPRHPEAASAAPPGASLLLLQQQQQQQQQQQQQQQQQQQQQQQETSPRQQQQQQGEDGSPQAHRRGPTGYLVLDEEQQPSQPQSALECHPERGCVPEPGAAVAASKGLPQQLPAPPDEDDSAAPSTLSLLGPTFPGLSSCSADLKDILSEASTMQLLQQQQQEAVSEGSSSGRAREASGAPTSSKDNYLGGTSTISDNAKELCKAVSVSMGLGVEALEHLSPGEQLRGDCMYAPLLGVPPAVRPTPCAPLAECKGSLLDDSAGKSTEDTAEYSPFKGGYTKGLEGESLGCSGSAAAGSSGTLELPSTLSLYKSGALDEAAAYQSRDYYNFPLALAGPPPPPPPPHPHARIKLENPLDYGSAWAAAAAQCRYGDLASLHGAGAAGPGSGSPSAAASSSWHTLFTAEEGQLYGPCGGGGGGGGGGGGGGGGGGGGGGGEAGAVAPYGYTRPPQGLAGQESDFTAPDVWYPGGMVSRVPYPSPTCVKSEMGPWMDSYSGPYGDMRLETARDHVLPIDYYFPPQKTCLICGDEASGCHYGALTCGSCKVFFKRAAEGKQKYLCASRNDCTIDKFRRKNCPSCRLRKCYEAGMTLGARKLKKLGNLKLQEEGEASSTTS
Experiment: MMTV-luc dual luciferase reporter assay, AR1-651-induced activity in 22RV1 cells;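 further: luminometric read-out of firefly luciferase signal normalized to Renilla luciferase signal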
Format: cell-based
Details: 22RV1, AR1-651 +, compound 10 µM, 12 h, mean ± s.d., n=3
Value expressed in %; do not type the unit.

Prompt: # lookup: MMTV-luc Activity (%), AR1-651-induced of O=Cc1ccc(O)c(O)c1 [Protocatechuic aldehyde]
Response: 62.5

Prompt: What value of MMTV-luc Activity (%), AR1-651-induced has been recorded for this entry: CC1(C)CC[C@]2(C(=O)O)CC[C@]3(C)C(=CC[C@@H]4[C@@]5(C)CC[C@H](O)C(C)(C)[C@@H]5CC[C@]43C)[C@@H]2C1 [Oleanic acid]
Response: 153.4

Prompt: Name the reported MMTV-luc Activity (%), AR1-651-induced value associated with the compound Cc1cc(O)c(C(=O)CCC(C)C)c(=O)o1 [Pogostone]
Response: 157.2

Prompt: For the compound O=C([O-])C(O)Cc1ccc(O)c(O)c1.[Na+] (centres unmarked) [Sodium Danshensu] , what MMTV-luc Activity (%), AR1-651-induced is on record?
Response: 73.3

Prompt: Requested read-out: MMTV-luc Activity (%), AR1-651-induced. Entry: CC1(C)[C@@H](O)CC[C@]2(C)[C@H]3C(=O)C=C4[C@@H]5C[C@@](C)(C(=O)O)CC[C@]5(C)CC[C@@]4(C)[C@]3(C)CC[C@@H]12 [glycyrrhetic acid]
Response: 308.3

Prompt: Return reported MMTV-luc Activity (%), AR1-651-induced; argument: COc1ccc([C@@H]2CC(=O)c3c(O)cc(O[C@@H]4O[C@H](CO[C@@H]5O[C@@H](C)[C@H](O)[C@@H](O)[C@H]5O)[C@@H](O)[C@H](O)[C@H]4O)cc3O2)cc1O [Hesperidin]
Response: 110.2

Prompt: Which value of MMTV-luc Activity (%), AR1-651-induced has been reported for C=C1C[C@@]2(O)O[C@@]3(C[C@H]2C(C)C)[C@@H](C)CC[C@@H]13 [Curcumol] in the records?
Response: 43.7

Prompt: What does the record list as MMTV-luc Activity (%), AR1-651-induced for O=C1CCC[C@@H]2[C@H]3CCC[N@+]4([O-])CCC[C@@H](CN12)[C@@H]34 [Ammothamnine] ?
Response: 105.7

* * *

Experiment: in vivo
Settings: Sprague-Dawley, rat, in vivo
QUANTITY: bioavailability (%)
The reply should be a number in %, with the unit left off.

Prompt: State the recorded bioavailability for this entry: C=C1[C@@H](O)[C@]2(O)OC[C@]34[C@H]2[C@@]2(C)[C@H](O)C(=O)C=C(C)[C@@H]2C[C@H]3OC(=O)C[C@@H]14
Response: 25.7

Recorded values, source paper PMC5159881.
